Cited source: patent US20040242459A1

Measured Primary Foot Volume % Inhibition Compared to Vehicle Day 4-0 accompanies every entry in the list below.
# System: adjuvant-induced arthritis in female Lewis rats
# recorded conditions: injected paw; same doses p.o. q.d.
Report the value in % with no unit label.

Here is how some molecules turned out for Primary Foot Volume % Inhibition Compared to Vehicle Day 4-0.
Cc1cccc(Nc2cc(Cl)nc(SCC(=O)O)n2)c1C [Compound 4, WY-14643, reference compound]; 0
O=C(O)c1c(Sc2ccccc2)c2cc(Cl)ccc2n1Cc1ccc(Cl)cc1 [Compound 3]; 0
CCCc1cc(Oc2ccccc2)ccc1OCCc1cc2cc(CC(=O)O)ccc2[nH]1 [Compound 2]; 18.6
Cc1cc(SCc2sc(-c3ccc(C(F)(F)F)cc3)nc2C)ccc1OCC(=O)O.[Na+] [Compound 1]; 23.1

[Q] Note down Primary Foot Volume % Inhibition Compared to Vehicle Day 4-0 recorded for COc1ccc2c(c1)c(CC(=O)O)c(C)n2C(=O)c1ccc(Cl)cc1 [Indomethacin, indomethacin, reference compound]
[A] 59.2
